Target: Hu/NoV/GII.4/MD145-12/1997/U.S. VLP (human norovirus GII.4)
Experiment: cell-based or functional assay
Field: HAI titer, B Rh+ RBC. Provide a value for each of the binders that follow.
Answers are plain numbers, in µg/mL.

Answered cases to consult:
{"columns": ["Binder", "HAI titer, B Rh+ RBC, µg/mL"],
 "data": [
  ["VHH 7.5 (VHH, llama VHH, MD2004 library; pHEN6, C-terminal His6 tag; also called clone 7.5) VHH: QVKLQESGGGLVQAGESLRLSCAASGSNFSINGVGWYRQAPGKQRELVAGITNGGYTSYADSVKGRFTISTDNAKNTVYLQMNSLRPEDTAVYYCNANFQIHRSGADYVRNYWGQGTQVTVSA", 0.78],
  ["VHH 5.4 (VHH, llama VHH, MD2004 library; pHEN6, C-terminal His6 tag; also called clone 5.4) VHH: QVQLQQSGGGLVQPGGSLRLSCVASESTVSINIMGWYRQAPGKQRELVATITTGGTTNYADSVKGRFTISRDNAKNTVYLQMNSLEPEDTAVYYCNLKRRDLQARFGGYWGQGTQVTVSS", 0.39],
  ["VHH 4.1 (VHH, llama VHH, MD2004 library; pHEN6, C-terminal His6 tag; also called clone 4.1) VHH: QVKLQQSGGGLVQPGGSLRLSCAASESTISINTLGWYRQAPGNQRELVATITTGGTTNYADSVKGRFTISRDNAKNTVYLQMNNLEPGDTAVYYCNLKRRDLQSRFGGYWGQGTQVTVSS", 0.39],
  ["VHH 3.2 (VHH, llama VHH, MD2004 library; pHEN6, C-terminal His6 tag; also called clone 3.2) VHH: QVQLQESGGGLVQPGGSLRLSCAASESTPSINTMGWYRQAPGKERELVATITSGGMTNYADSVKGRFTISRDNGKNTVYLQMNSLEPGDTAVYYCNLKRRDLQARFGGYWGQGTQVTVSS", 0.19]
]}

Here is another binder to look at.
[in] What does the data say about its HAI titer, B Rh+ RBC? Entry: VHH 19 (VHH, MD2004 library, subtractive biopanning; His6 tag; also called 19.1; clone 19) VHH: QVKLQQSGGGLVQPGGSLRLSCAASGFTFRNYAMSWVRQAPGKGLEWVSAIAAGGAVTKYADSVKGRFTISRDNARDTLYLQMNSLKPEDTAVYYCAKPRDFWYSPEFDFRGQGTQVTVSS
[out] 0.39
